Target: Avi-KRAS G12V (2-169) GTP/RAF1 RBD-3xFLAG (51-131) (Homo sapiens, UniProt P01116, G12V)
Construct: Avi-KRAS G12V (2-169)
Sequence (P01116 2-169 isoform P01116-2 G12V): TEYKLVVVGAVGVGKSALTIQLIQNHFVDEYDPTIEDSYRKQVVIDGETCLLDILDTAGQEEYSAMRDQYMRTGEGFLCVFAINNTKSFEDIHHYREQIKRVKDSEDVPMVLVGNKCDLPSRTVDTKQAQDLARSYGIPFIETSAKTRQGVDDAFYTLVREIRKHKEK
Test: Raf1-KRAS G12V-GTP disruption HTRF assay (Biological Example 3)
Format: binding
Conditions: KRAS G12V, GTP-loaded
pIC50: −log10 of the molar value.
Measured pIC50, listed per entry for reference.
measured_attribute: pIC50

1. CCN(c1nc(OC[C@@]23CCCN2C[C@H](F)C3)nc2c(F)c(-c3ccc(F)c4sc(N)c(C#N)c34)c(C(F)(F)F)cc12)[C@H]1CCN(C(=O)C2C[C@@H]2F)C1 (stereo partly shown) | ≥ 7.00
2. Cc1c(C(=O)N2CCCC2)nn2c1CN(c1nc(OCC34CCCN3CC(F)C4)nc3c(F)c(-c4ccc(F)c5sc(N)c(C#N)c45)c(C(F)(F)F)cc13)CC2 (stereo not shown) | 6.00 to 7.00
3. CCN(c1nc(OC[C@@]23CCCN2C[C@H](F)C3)nc2c(F)c(-c3ccc(F)c4sc(N)c(C#N)c34)c(C(F)(F)F)cc12)[C@H]1CCN(C(=O)C2CC2)[C@@H]1C (atropisomer, axis not shown) | 6.00 to 7.00
4. CCN(c1nc(OC[C@]23CCCN2C[C@H](F)C3)nc2c(F)c(-c3ccc(F)c4sc(N)c(C#N)c34)c(C(F)(F)F)cc12)[C@H]1CCN(C(=O)OC)C1 (atropisomer, axis not shown) [Compound 954] | 6.00 to 7.00
5. CCN(c1nc(OC[C@@]23CCCN2C[C@H](F)C3)nc2c(F)c(-c3ccc(F)c4sc(N)c(C#N)c34)c(C(F)(F)F)cc12)[C@H]1CCN(C(=O)c2coc(C)n2)C1 (atropisomer, axis not shown) | ≥ 7.00
6. CN(Cc1ncoc1C#N)c1nc(OC[C@@]23CCCN2C[C@H](F)C3)nc2c(F)c(-c3ccc(F)c4sc(N)c(C#N)c34)c(C(F)(F)F)cc12 (atropisomer, axis not shown) | 5.00 to 6.00
7. CCN(c1nc(OC[C@@]23CCCN2C[C@H](F)C3)nc2c(F)c(-c3ccc(F)c4sc(N)c(C#N)c34)c(C(F)(F)F)cc12)[C@H]1C[C@H](C)N(C(=O)N2CC(OC)C2)C1 (atropisomer, axis not shown) | ≥ 7.00
8. CCN(c1nc(OC[C@@]23CCCN2C[C@H](F)C3)nc2c(F)c(-c3ccc(F)c4sc(N)c(C#N)c34)c(C(F)(F)F)cc12)[C@H]1C[C@H]2CCC(=O)N2C1 (atropisomer, axis not shown; (aR)) | ≥ 7.00
9. CCN(c1nc(OC[C@@]23CCCN2C[C@H](F)C3)nc2c(F)c(-c3ccc(F)c4sc(N)c(C#N)c34)c(C(F)(F)F)cc12)[C@H]1CCN(C(=O)O[C@@H]2CCCOC2)C1 (atropisomer, axis not shown) | 6.00 to 7.00
10. CCN(c1nc(OC[C@@]23CCCN2C[C@H](F)C3)nc2c(F)c(-c3ccc(F)c4sc(N)c(C#N)c34)c(C(F)(F)F)cc12)[C@H]1CC(=O)N(CC(F)F)C1 (atropisomer, axis not shown) | ≥ 7.00
11. CN(c1nc(OC[C@@]23CCCN2C[C@H](F)C3)nc2c(F)c(-c3ccc(F)c4sc(N)c(C#N)c34)c(C(F)(F)F)cc12)[C@H]1C[C@@H](O)C1 | 6.00 to 7.00
12. CCN(c1nc(OC[C@@]23CCCN2C[C@H](F)C3)nc2c(F)c(-c3ccc(F)c4sc(N)c(C#N)c34)c(C(F)(F)F)cc12)[C@@H]1CO[C@H]2OCC[C@H]21 (atropisomer, axis not shown) | 6.00 to 7.00
13. CCN(c1nc(OC[C@@]23CCCN2C[C@H](F)C3)nc2c(F)c(-c3ccc(F)c4sc(N)c(C#N)c34)c(C(F)(F)F)cc12)[C@@H]1CCN(C(C)=O)C1 | 6.00 to 7.00
14. CCN(c1nc(OCC23CCCN2CC(F)C3)nc2c(F)c(-c3ccc(F)c4sc(N)c(C#N)c34)c(C(F)(F)F)cc12)C1CCN(C(=O)c2ccc(Cl)s2)C1 (stereo not shown) | 6.00 to 7.00
15. N#Cc1c(N)sc2c(F)ccc(-c3c(C(F)(F)F)cc4c(N5CC6CC(C5)O6)nc(OC[C@@]56CCCN5C[C@H](F)C6)nc4c3F)c12 [Compound 145] | 5.00 to 6.00
16. C/C=C/C(=O)N1CC[C@H](N(CC)c2nc(OC[C@@]34CCCN3C[C@H](F)C4)nc3c(F)c(-c4ccc(F)c5sc(N)c(C#N)c45)c(C(F)(F)F)cc23)C1 (atropisomer, axis not shown) | ≥ 7.00
17. CCN(c1nc(OC[C@@H]2C[C@@H](OC)CN2C)nc2c(F)c(-c3ccc(F)c4sc(N)c(C#N)c34)c(C(F)(F)F)cc12)[C@H]1CCN(C(=O)OC)C1 | 5.00 to 6.00
18. CCN(c1nc(OC[C@@]23CCCN2C[C@H](F)C3)nc2c(F)c(-c3ccc(F)c4sc(N)c(C#N)c34)c(C(F)(F)F)cc12)[C@@H]1CCN(C(=O)C(C)C)C1 | 5.00 to 6.00
19. CCN(c1nc(OC[C@@]23CCCN2C[C@H](F)C3)nc2c(F)c(-c3ccc(F)c4sc(N)c(C#N)c34)c(C(F)(F)F)cc12)[C@H]1CCN(C(=O)[C@@H]2C[C@@H]2F)[C@@H]1C (atropisomer, axis not shown) | 6.00 to 7.00
